test system: induced pluripotent stem cell-derived hepatocytes (iHep) suspension; assay: iHep suspension, nontargeted IMS-MS analysis (clearance, metabolite formation, mass balance); assay type: in vitro ADME, human; conditions: 1µM mixture
List of CLHep average, Nontargeted Analyses (IMS-MS) values.
Readout kind: CLHep average, Nontargeted Analyses (IMS-MS) (µL/min/106 hepatocytes)

{"Compound": "COP(=S)(OC)SCn1nnc2ccccc2c1=O [Azinphos-methyl]", "Obs value": 8.987}
{"Compound": "O=[N+]([O-])c1ccc(O)c([N+](=O)[O-])c1 [2,4-Dinitrophenol]", "Obs value": 8.886}
{"Compound": "CCOP(=S)(OCC)Oc1nc(Cl)c(Cl)cc1Cl [Chlorpyrifos]", "Obs value": 7.82}
{"Compound": "CCOP(=S)(OCC)Oc1cc(C)nc(C(C)C)n1 [Diazinon]", "Obs value": 2.285}
{"Compound": "CCOP(=S)(OCC)SCSP(=S)(OCC)OCC [Ethion]", "Obs value": 5.216}
{"Compound": "CCOP(=S)(OCC)SCCSCC [Disulfoton]", "Obs value": 5.305}

Origin of the recorded values: paper PMC9609317
